Numbers sourced from patent US11932657B2.

Molecular target: aryl hydrocarbon receptor (AhR) (Homo sapiens, UniProt P35869)
Construct: DRE-Luc HepG2 cells subcultured in a 225 cm^2 flask; endogenous in cells
Sequence (P35869 11-848): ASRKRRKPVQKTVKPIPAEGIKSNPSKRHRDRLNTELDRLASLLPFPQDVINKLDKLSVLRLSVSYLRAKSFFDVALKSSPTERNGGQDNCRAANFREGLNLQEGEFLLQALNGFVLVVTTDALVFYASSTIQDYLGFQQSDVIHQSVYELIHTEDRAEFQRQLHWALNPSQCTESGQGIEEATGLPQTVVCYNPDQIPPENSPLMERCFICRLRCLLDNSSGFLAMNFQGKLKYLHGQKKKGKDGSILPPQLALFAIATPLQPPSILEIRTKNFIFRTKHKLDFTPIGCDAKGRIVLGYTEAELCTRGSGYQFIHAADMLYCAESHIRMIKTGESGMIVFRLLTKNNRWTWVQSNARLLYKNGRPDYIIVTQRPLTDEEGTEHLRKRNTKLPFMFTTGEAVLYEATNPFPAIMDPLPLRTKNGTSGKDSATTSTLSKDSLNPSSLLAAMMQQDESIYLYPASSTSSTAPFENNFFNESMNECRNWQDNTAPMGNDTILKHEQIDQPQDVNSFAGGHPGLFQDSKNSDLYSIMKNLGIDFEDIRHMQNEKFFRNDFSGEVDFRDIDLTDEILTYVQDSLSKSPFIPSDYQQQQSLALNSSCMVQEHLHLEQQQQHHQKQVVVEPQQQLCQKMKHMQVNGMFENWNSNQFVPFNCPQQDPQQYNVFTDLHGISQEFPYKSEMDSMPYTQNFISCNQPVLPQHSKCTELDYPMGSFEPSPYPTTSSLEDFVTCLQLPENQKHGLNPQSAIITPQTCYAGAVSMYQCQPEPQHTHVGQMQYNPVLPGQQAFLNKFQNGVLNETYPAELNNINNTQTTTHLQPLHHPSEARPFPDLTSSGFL
Test: AhR reporter gene assay (aryl hydrocarbon receptor antagonist activity, DRE-Luc HepG2 cells, TCDD-stimulated luciferase)
measured quantity: IC50
In your response, the unit should come after the numeric value.

Ask: Report IC50 for Cc1cncc(-c2nc(NCCc3ccc(O)c(-c4cccc(C#N)c4F)c3)c3nc4n(c3n2)C(C)(C)CO4)c1 [Example 68] tested on aryl hydrocarbon receptor (AhR) (Homo sapiens, UniProt P35869).
Reply: 2.8 nM

Ask: Let us now turn to CC1(C)CSc2nc3c(NCCc4ccc(O)c(-c5ccccc5)c4)nc(-c4cncc(F)c4)nc3n21 [Example 47]
Reply: 0.38 nM

Ask: Record: CC1(C)COc2nc3c(NCCc4ccc(O)c(-c5ccc(F)cc5F)c4)nc(-c4cncc(F)c4)nc3n21 [Example 42]
Reply: 6.1 nM

Ask: Do the same for C[C@@H]1CSc2nc3c(NCCc4ccc(O)c(-c5cccc(F)c5)c4)nc(-c4cncc(F)c4)nc3n21 [Example 29] please
Reply: 0.37 nM

Ask: What do you have for CC1(C)C[S+]([O-])c2nc3c(NCCc4ccc(O)c(-c5cccc(F)c5)c4)nc(-c4cncc(F)c4)nc3n21 (stereo not drawn) [Example 21] ?
Reply: 0.033 nM

Ask: What do you have for CC1(C)COc2nc3c(NCCc4c[nH]c5ccccc45)nc(-c4cccc(F)c4)nc3n21 [Example 85] ?
Reply: 27 nM

Ask: And for Cc1cncc(-c2nc(NCCc3ccc(O)c(-c4cccc(F)c4)c3)c3nc4n(c3n2)C(C)(C)CO4)c1 [Example 24] ?
Reply: 3.9 nM

Ask: Item: CC1(C)COc2nc3c(NCCc4c[nH]c5ccccc45)nc(-c4ccc5nccn5c4)nc3n21 [Example 110]
Reply: 40 nM
